- System: MDA-N
- EXPERIMENT NOTES: NCI tumour cell line growth inhibition, 48 h
REPORTED METRIC: TGI

These solved cases illustrate the format of a correct answer.
>>> print(df.to_string())
                                   compound    result
0  C[C@]1(S(=O)(=O)c2ccccc2)C[C@H]2N(Cc3ccccc3)[C@@H]1CCC21OCCO1  > 100 µM
1  Cc1ncc([N+](=O)[O-])n1CCNS(=O)(=O)CCCn1ncnc1[N+](=O)[O-]  > 100 µM
2  OCC(O)C(O)C(O)/C=N/Nc1nc(O)c(/C=C2\C=Nc3ccccc32)[nH]1 (centres undefined)  > 100 µM
3  CCOC(=O)C1(C(=O)OCC)CCCN1C(=O)[C@H](CNC(=O)OC(C)(C)C)NC(=O)OCc1ccccc1  > 100 µM
4             CN1COCc2cc3cc4c(cc3nc21)OCCO4  > 100 µM
5  CCN(CC)CCNC(=O)c1ccc(C)c(OCc2ccccc2)c1[N+](=O)[O-]   38.3 µM
6  COP(=O)(OC)C12CCOCCN1c1ccccc1C2=O (centres undefined)  > 100 µM
7  Cc1ccc(S(=O)(=O)NC(=O)NC2=NC(C)(C)N(c3ccc(Cl)c(Cl)c3)C(N)=N2)cc1  > 100 µM

Now let's try a different one.
Quickly give me recorded TGI for COc1cc2c(cc1OC)C13CC[N+]4(C)CC5=CCOC6CC(=O)N2C1C6C5CC34[O-] (centres undefined)
> 100 µM

====

Known TGI of a selection of compounds
- Test system: OVCAR-4 ovarian
- EXPERIMENT NOTES: NCI tumour cell line growth inhibition, 48 h

These solved cases illustrate the format of a correct answer.
>>> print(df.to_string())
                                   compound    result
0  O=C(N/N=C/c1c(Cl)cccc1Cl)c1ccc(C(F)(F)F)nc1Nc1cccc(C(F)(F)F)c1  > 100 µM
1  Clc1cc(Cl)cc(Nc2ccc3cc(OCCCN4CCOCC4)ccc3n2)c1  > 100 µM
2  COc1c(O)c(O)cc2c1-c1ccc(OC)c(=O)cc1C(NC(C)=O)CC2 (centres undefined)   77.2 µM

Now let's try a different one.
Quickly give me recorded TGI for CCOC(=O)C(C)c1nc2c(Cl)c3ncccc3cc2[nH]c1=O (centres undefined)
> 100 µM

====

- Test system: SF-268 CNS
- EXPERIMENT NOTES: NCI tumour cell line growth inhibition, 48 h
REPORTED METRIC: TGI

>>> df
                                   compound     result
0    COc1cc(CC(C)N)ccc1O (stereo not given)   > 100 µM
1  Cc1ccc(Nc2nnc(-c3ccc4c(c3)OCO4)o2)c(C)c1   > 100 µM
2  COc1cc(C(=O)C/C(CCC(=O)Nc2ccc(Cl)cc2Cl)=N/NC(=O)C(=O)NN)ccc1O   > 100 µM
3  COc1c(O)c(O)cc2c1-c1ccc(OC)c(=O)cc1C(NC(C)=O)CC2 (stereo not given)  > 95.2 µM

Quickly give me recorded TGI for O=C(c1ccccc1)N1C(=S)N=C(Nc2ccccc2)C1=Nc1ccccc1
> 100 µM

Recorded values, source PubChem BioAssay (NCI).
